# test-summary: in vivo
# conditions-used: rat, Quinine serum level
property: concentration at 24 h (ng/mL)
Provide the reading as a plain figure in ng/mL.

Item under review: C=C[C@H]1C[N@@]2CC[C@H]1C[C@H]2[C@H](O)c1ccnc2ccc(OC)cc12 [Quinine] . Reported concentration at 24 h?
1400

====

# test-summary: in vivo
# conditions-used: rat, Quinine serum level
property: concentration at 13 h (ng/mL)
Provide the reading as a plain figure in ng/mL.

Item under review: C=C[C@H]1C[N@@]2CC[C@H]1C[C@H]2[C@H](O)c1ccnc2ccc(OC)cc12 [Quinine] . Reported concentration at 13 h?
1600

====

# test-summary: Rifampicin serum level in rats after one-time administration
# Assay type: in vivo
# conditions-used: serum, about 8 mg/rat with prolongation solution, 32 hours
property: concentration at 32 h
Output should be the measured figure followed by the unit it is expressed in.

Item under review: CO[C@H]1/C=C/O[C@@]2(C)Oc3c(C)c(O)c4c(O)c(c(/C=N/N5CCN(C)CC5)c(O)c4c3C2=O)NC(=O)/C(C)=C\C=C\[C@H](C)[C@H](O)[C@@H](C)[C@@H](O)[C@@H](C)[C@H](OC(C)=O)[C@@H]1C [Rifampicin] . Reported concentration at 32 h?
8500 ng/mL

====

# test-summary: Glipizide serum level in rats after one-time administration
# Format: in vivo
# conditions-used: rat, other: injected, about 0.25 mg in 3 ml prolongation solution of Example 1, injected, 26 hours
property: concentration at 26 h
Output should be the measured figure followed by the unit it is expressed in.

Item under review: Cc1cnc(C(=O)NCCc2ccc(S(=O)(=O)NC(=O)NC3CCCCC3)cc2)cn1 [Glipizide] . Reported concentration at 26 h?
570 ng/mL

====

# test-summary: Glipizide serum level in rats after one-time administration
# Assay type: in vivo
# conditions-used: rat, other: injected, about 0.25 mg in 3 ml prolongation solution of Example 1, injected, 52 hours
property: concentration at 52 h (ng/mL)
Provide the reading as a plain figure in ng/mL.

Item under review: Cc1cnc(C(=O)NCCc2ccc(S(=O)(=O)NC(=O)NC3CCCCC3)cc2)cn1 [Glipizide] . Reported concentration at 52 h?
1400

====

# test-summary: Rifampicin serum level in rats after one-time administration
# Assay type: in vivo
# conditions-used: rat, serum, about 18 mg in 3 ml prolongation solution of Example 1, one-time administration, 14 hours
property: concentration at 14 h (µg/mL)
Provide the reading as a plain figure in µg/mL.

Item under review: `CO[C@H]1/C=C/O[C@@]2(C)Oc3c(C)c(O)c4c(O)c(c(/C=N/N5CCN(C)CC5)c(O)c4c3C2=O)NC(=O)/C(C)=C\C=C\[C@H](C)[C@H](O)[C@@H](C)[C@@H](O)[C@@H](C)[C@H](OC(C)=O)[C@@H]1C` . Reported concentration at 14 h?
19

====

# test-summary: in vivo
# conditions-used: rat, Quinine serum level
property: concentration at 15 h (ng/mL)
Provide the reading as a plain figure in ng/mL.

Item under review: `C=C[C@H]1C[N@@]2CC[C@H]1C[C@H]2[C@H](O)c1ccnc2ccc(OC)cc12` . Reported concentration at 15 h?
2100

====

# test-summary: Rifampicin serum level in rats after one-time administration
# Assay type: in vivo
# conditions-used: rat, serum, about 18 mg in 3 ml prolongation solution of Example 1, one-time administration, 32 hours
# Experimental: The following examples used laboratory rats and mice. Serum testing was conducted after one-time initial administration to rats. The Rifampicin level remained: Control test using water alone on 8 mg/rat. […] Thus, the prolongation solution is effective at reduced drug administration levels.
property: concentration at 32 h (ng/mL)
Provide the reading as a plain figure in ng/mL.

Item under review: `CO[C@H]1/C=C/O[C@@]2(C)Oc3c(C)c(O)c4c(O)c(c(/C=N/N5CCN(C)CC5)c(O)c4c3C2=O)NC(=O)/C(C)=C\C=C\[C@H](C)[C@H](O)[C@@H](C)[C@@H](O)[C@@H](C)[C@H](OC(C)=O)[C@@H]1C` . Reported concentration at 32 h?
3500

Data provenance is patent US20130158132A1.
